growth overview
tested on: IGROV1 ovarian; test: NCI-60 one-dose screen, 48 h (100 = growth as untreated, 0 = no growth, -100 = all killed); details: 10 µM unless noted
About 83,000 compounds went through this panel and 20% of them were active in at least one assay; those are over-represented in the sample as a whole.
Field: numeric (%). Do not append units.

* CCc1ccc(C2=C/C(=C/c3ccc(Cl)cc3)C(=O)N2CCc2ccc(S(N)(=O)=O)cc2)cc1 | 27.7

-- ask Find the recorded growth belonging to `O=C(O)c1cn(C2CC2)c2cc(N3CCN(C(=O)CSc4nc(NS(=O)(=O)c5ccccc5)cc(=O)[nH]4)CC3)c(F)cc2c1=O` and report it.
-- reply 98.3

-- ask Find the recorded growth belonging to `COc1ccc(N)c(S)c1` and report it.
-- reply 94.9

-- ask Find the recorded growth belonging to `COc1ccc(C(=O)Cn2cnc3c(Nc4cc(C(=O)Nc5ccc(N6CCN(CCO)CC6)cc5)ccc4C)ncnc32)cc1` and report it.
-- reply 110

-- ask Find the recorded growth belonging to `O[C@@H]1CCO[C@H](c2ccc3ccccc3c2)C1` and report it.
-- reply 107

-- ask Find the recorded growth belonging to `CC/C(=C(\CC)c1ccc(OCCN(CC)CC)cc1)c1ccc(OCCN(CC)CC)cc1` and report it.
-- reply 59.9

-- ask Find the recorded growth belonging to `C=C1C(=O)O[C@H]2[C@H]1CC/C(C(=O)Nc1ccc(OC)c(C(N)=O)c1O)=C\CC[C@@]1(C)O[C@@H]21` and report it.
-- reply 55.5

-- ask Find the recorded growth belonging to `NCC(=O)NS(=O)(=O)OC[C@H]1O[C@@H](n2cnc3c(N)ncnc32)[C@H](O)[C@@H]1O` and report it.
-- reply 11.7

-- ask Find the recorded growth belonging to `CC(C)(CCN=C(N)Nc1ccccn1)c1ccc(C(F)(F)F)cc1` and report it.
-- reply 11.9

-- ask Find the recorded growth belonging to `Cc1cc(Nc2ccc(Cl)c(Cl)c2)nc(N)n1` and report it.
-- reply 114

-- ask Find the recorded growth belonging to `Nc1ncnc2c1c(-c1ccc(Oc3ccccc3)cc1)nn2C[C@H]1SSC[C@H]1O` and report it.
-- reply -26.5

-- ask Find the recorded growth belonging to `Clc1ccc(OCc2nc(-c3ccccc3)n[nH]2)c(Cl)c1` and report it.
-- reply 97.6

-- ask Find the recorded growth belonging to `Cc1ncc(CO)c(C(=O)O)c1O` and report it.
-- reply 107

-- ask Find the recorded growth belonging to `COc1ccccc1S(=O)(=O)Nc1ccc2c3c(cc(-c4cnn(C)c4)nc13)C(=O)N2C` and report it.
-- reply 18.4

###

Test system: OVCAR-5 ovarian
Experiment: NCI-60 one-dose screen, 48 h (100 = growth as untreated, 0 = no growth, -100 = all killed)
Conditions: 10 µM unless noted
Method: Growth inhibition of the OVCAR-5 human tumor cell line is measured as a screen for anti-cancer activity. Cells are grown in 96 well plates and exposed to the test compound for 48 hours. Compounds are tested at a single concentration, which is 10^-5 M for most compounds. The reported endpoint is percent growth (GI% or GIPRCNT), where numbers from 0 - 100% represent growth inhibition, and numbers from -100% - 0 represent cell death. For example, a value of 40 represents 60% growth inhibition. […]
This is part of a sample that, as a whole, favours compounds with a hit. Of some 83,000 tested, about 20% had one in any assay. Active and inactive are the calls of the source. The calls were made as follows: active = growth percent below 10; inactive = the rest.
attribute measured: growth

Solved entries:
• CCN(CC)CCNC(=O)c1c(C)[nH]c(/C=C2\C(=O)Nc3cc(NC(=O)NC(=O)c4ccc(OC)cc4F)ccc32)c1C = 120% (inactive)
• C=C1C(=O)O[C@H]2[C@H]1CC/C(C(=O)Nc1ccc(OC)c(C(N)=O)c1O)=C\CC[C@@]1(C)O[C@@H]21 = 75.1% (inactive)
• COc1ccc(/C(Cl)=N/N=C(\Cl)c2cc(OC)c(OC)c(OC)c2)cc1OC(C)=O = 107% (inactive)
• OC[C@@H](O)C(O[C@@H]1O[C@H](CO)[C@H](O)[C@H](O)[C@H]1O)[C@H](O)[C@@H](O)CO (stereo partly drawn) = 91.8% (inactive)
• CC(=O)c1ccc2c(c1)C1C=CCC1[C@H](c1cc3c(cc1Br)OCO3)N2 (stereo partly drawn) = 34.7% (inactive)

-- ask Find the recorded growth belonging to `C=CCOc1ccc(/C(Cl)=N/N=C(\Cl)c2cc(OC)c(OC)c(OC)c2)cc1` and report it.
-- reply 97.5% (inactive)

-- ask Find the recorded growth belonging to `O=C1C(SCCO)=C(SCCO)C(=O)N1c1ccc(-c2ccccc2)cc1` and report it.
-- reply 102% (inactive)

-- ask Find the recorded growth belonging to `COc1ccc(-c2nn(-c3ccc(NC(=O)Nc4ccc(Cl)c(C(F)(F)F)c4)cc3)cc2-c2ccncc2)cc1Cl` and report it.
-- reply 14.5% (inactive)

###

test system: MALME-3M melanoma; assay: NCI-60 one-dose screen, 48 h; conditions: 10 µM unless noted
Compounds without any hit were thinned out: in the full panel of roughly 83,000, 20% have a hit. Calls of active or inactive are those of the source. How the source made its calls: active means growth percent below 10; inactive means the rest.
Return exactly one item of 1.0 (active), 0.0 (inactive)

These solved cases illustrate the format of a correct answer.
* CC(/C=C/C=C(\C)[C@H](O)[C@H](C)C(=O)O[C@H]1C[C@H](C)C=C2C=C[C@@]3(C)O[C@@H](O)CC(=O)[C@]3(C)[C@H]21)=C\C=C\C(=O)O | 1.0
* c1ccc2c(c1)Oc1cccnc1-n1nccc1-2 | 0.0
* COc1cc2c(cc1OC)-c1c(oc3c4c(ccc3c1=O)OC(C)(C)C=C4)CO2 | 0.0
* CC12CCC3C(CCC4CC(O)CCC43C)C1C/C(=C/O)C(=O)O2 (stereo not given) | 0.0

-- ask What classification did `Cc1ccc(NC(=O)CN2CCOCC2)cc1Cl` end up with in this test?
-- reply 0.0

###

growth overview
test system: M14 melanoma; experiment: NCI-60 one-dose screen, 48 h (100 = growth as untreated, 0 = no growth, -100 = all killed); conditions: 10 µM unless noted
The panel holds about 83,000 compounds, 20% with a hit somewhere; the sample as a whole holds those more often. Activity calls are given as the source filed them. Rule for the calls: active = growth percent below 10; inactive = the rest.

Solved entries:
• O=C1C(SCCO)=C(SCCO)C(=O)N1c1ccc(-c2ccccc2)cc1 = 85.7% (inactive)
• O=C(Nc1ccccc1F)Nc1ccccc1Cl = 100% (inactive)

Now take the following compound into account.
-- ask Find the recorded growth belonging to `Fc1ccc(/C=N/n2c(-c3cc(Cl)cc(Cl)c3Cl)nn(CNc3ccc(Cl)nn3)c2=S)cc1` and report it.
-- reply 85.6% (inactive)

###

test system: HCT-15 colon; test: NCI-60 one-dose screen, 48 h; settings: 10 µM unless noted
About 83,000 compounds went through this panel and 20% of them were active in at least one assay; those are over-represented in the sample as a whole. Calls of active or inactive are those of the source. Rule for the calls: active = growth percent below 10; inactive = the rest.
Return exactly one item of y = active, n = inactive

- CN(C)CCS(=O)(=O)Nc1cc(-c2ccc3ncnc(Nc4ccc(F)c(Cl)c4)c3c2)cnc1Cl: y

-- ask What classification did `COc1cccc(-c2nc3sccn3c2-c2ccnc(NCCNC(=O)c3ccccc3)n2)c1` end up with in this test?
-- reply n

-- ask What classification did CC(=O)N1N=C(CCC(=O)c2nc3ccc([N+](=O)[O-])cc3[nH]2)OC1c1ccc(O)cc1 (stereo not drawn) end up with in this test?
-- reply n

###

Tested on: MOLT-4 leukemia
Experiment: NCI-60 one-dose screen, 48 h
Conditions: 10 µM unless noted
Protocol: Growth inhibition of the MOLT-4 human tumor cell line is measured as a screen for anti-cancer activity. Cells are grown in 96 well plates and exposed to the test compound for 48 hours. Compounds are tested at a single concentration, which is 10^-5 M for most compounds. The reported endpoint is percent growth (GI% or GIPRCNT), where numbers from 0 - 100% represent growth inhibition, and numbers from -100% - 0 represent cell death. For example, a value of 40 represents 60% growth inhibition. […]
Compounds without any hit were thinned out: in the full panel of roughly 83,000, 20% have a hit. Calls of active or inactive are those of the source. Rule for the calls: active = growth percent below 10; inactive = the rest.
Return exactly one item of TRUE for active, FALSE for inactive

- O=C(NCCNc1nccc(-c2c(-c3cccc(O)c3)nc3sccn23)n1)c1ccc(N2CCOCC2)c(C(F)(F)F)c1: FALSE

-- ask What classification did `CN1CCN(CC(=O)N(C)c2ccc(N=C(c3ccccc3)c3c(O)[nH]c4ccc(C#N)cc34)cc2)CC1` end up with in this test?
-- reply TRUE

-- ask What classification did `O=C(NCCNc1nccc(-c2c(-c3cccc(O)c3)nc3sccn23)n1)c1cccc(C(F)(F)F)c1` end up with in this test?
-- reply FALSE

-- ask What classification did CCN(CC)c1ccc(C2CC(c3cc(OC)c(OC)c(OC)c3)=NN2)cc1 (stereo not drawn) end up with in this test?
-- reply TRUE

The reported measurements were obtained from PubChem BioAssay (NCI).
